All figures here come from patent US20230416329A1.

Target: bovine trypsin (bovine, UniProt P00760 24-246)
Sequence (P00760 24-246): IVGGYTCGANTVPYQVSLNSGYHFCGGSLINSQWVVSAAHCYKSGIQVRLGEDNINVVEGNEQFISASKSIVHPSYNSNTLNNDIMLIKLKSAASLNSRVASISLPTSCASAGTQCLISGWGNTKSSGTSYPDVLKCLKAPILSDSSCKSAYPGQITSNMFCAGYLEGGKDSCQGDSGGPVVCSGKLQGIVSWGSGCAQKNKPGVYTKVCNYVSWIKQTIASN
Experiment: trypsin inhibition, BApNA substrate
Experimental: The substrates N-succinyl-Ala-Ala-Pro-Phe-p-nitroaniline (AAPFpNA), Nα—Benzoyl-L-arginine-4-nitroaniline hydrochloride (BApNA) and N-succinyl-[…] (AAApNA) are used in competitive binding reaction to determine the inhibitory activities against α-chymotrypsin, bovine trypsin, and porcine pancreatic elastase, respectively. […] The concentration of the peptide was measured using optical density (OD) at 280 nm. […]
Bridge positions count the residues as written; N and C are the ends. Square brackets hold non-standard residues; d marks the D form. Ends that are not written are not given here. hCys = N[C@@H](CCS)C(=O)O
Rule: IC50 below 4 µM gives yes (1), anything at or above gives no (0).

# count of solved cases: 5
binder="GTCTRSIPPICNPN (disulfide 3-11 (inferred)) [BT23]" cat="yes (1)"
binder="[hCys]GRATKSIPPIAFG[hCys] (disulfide 1-15) [BT33]" cat="no (0)"
binder="[hCys]GRATKSIPPIAF[hCys] (disulfide 1-14) [BT29]" cat="no (0)"
binder="CGTATKSIPPICF (disulfide 1-12 (inferred)) [BT25]" cat="yes (1)"
binder="RCTKSIPPICF (disulfide 2-10 (inferred), also called truncated monocyclic SFTI-1 mutant) [BT45]" cat="yes (1)"

# next binder below
Regarding CGRATRSIPPACF (disulfide 1-12 (inferred)) [BT15] , kindly confirm whether its IC50 is beneath 4 µM. no (0)
